The reported measurements were obtained from the Immune Epitope Database (IEDB).

assayed.target: HLA-B*15:42
assay.info: IEDB peptide-MHC binding, purified MHC/competitive/fluorescence; filed as Kd, often an IC50 or EC50 that approximates it; bounds were set here for any values at or beyond the usual limits of such assays
experimental.parameters: source organism: dengue virus type 2
measure.name: Kd

Exercise: Fill in the blank: the reported Kd of SEMGANFKA is ____.
Solution: ≥ 5 µM

* * *

assayed.target: HLA-B*57:01
assay.info: IEDB peptide-MHC binding, purified MHC/direct/fluorescence; filed as Kd, often an IC50 or EC50 that approximates it; bounds were set here for any values at or beyond the usual limits of such assays
experimental.parameters: source organism: Mammarenavirus lassaense
measure.name: pKd
To interpret pKd, take it as minus log10 of a concentration measured in moles per litre.

Exercise: I am curious: what pKd value has been reported for LSVSSRCPI ?
Solution: 5.93

* * *

assayed.target: HLA-A*03:01
assay.info: IEDB peptide-MHC binding, purified MHC/direct/fluorescence; filed as Kd, often an IC50 or EC50 that approximates it; bounds were set here for any values at or beyond the usual limits of such assays
experimental.parameters: source organism: Escherichia coli
measure.name: Kd

| query.sequence | assayed.target | Kd |
| --- | --- | --- |
| LMQWWSDYV | HLA-A*03:01 | ≥ 20 µM |

Exercise: Need Kd, item NMERKLNLS
Solution: ≥ 20 µM

* * *

assayed.target: HLA-B*18:01
assay.info: IEDB peptide-MHC binding, purified MHC/competitive/radioactivity; filed as Kd, often an IC50 or EC50 that approximates it; bounds were set here for any values at or beyond the usual limits of such assays
experimental.parameters: source organism: SARS coronavirus Tor2
measure.name: pKd
Please report pKd as the negative decimal logarithm of the molar concentration, giving only the number.

Known pKd results, listed for orientation:
| query.sequence | pKd |
| --- | --- |
| EEVVLKNGEL | 6.42 |
| METDFLELAM | 7.42 |
| MEAQFLYLY | 9.53 |
| FEVLAVEDT | 5.47 |
| QELLIQQWI | 5.06 |

In the following, a different sequence is considered.
Exercise: Which pKd is reported with HLA-B*18:01 for this entry: AEWVLAYMLF ?
Solution: 6.49

* * *

assayed.target: HLA-A*80:01
assay.info: IEDB peptide-MHC binding, purified MHC/direct/fluorescence; filed as Kd, often an IC50 or EC50 that approximates it; bounds were set here for any values at or beyond the usual limits of such assays
experimental.parameters: source organism: Mus musculus
measure.name: Kd (nM)
Entry rule: numbers only, all in nM.

Exercise: For the sequence AFFAERLYY , what Kd is on record?
Solution: 19.5

* * *

assayed.target: HLA-B*07:02
assay.info: IEDB peptide-MHC binding, purified MHC/direct/fluorescence; filed as Kd, often an IC50 or EC50 that approximates it; bounds were set here for any values at or beyond the usual limits of such assays
experimental.parameters: source organism: Bacillus anthracis
pKd: −log10 of the molar value.
measure.name: pKd

Exercise: Recorded pKd of DTVLFNAGL , please.
Solution: ≤ 4.70

* * *

assayed.target: HLA-B*58:01
assay.info: IEDB peptide-MHC binding, purified MHC/direct/fluorescence; filed as Kd, often an IC50 or EC50 that approximates it; bounds were set here for any values at or beyond the usual limits of such assays
experimental.parameters: source organism: Vibrio vulnificus
pKd: −log10 of the molar value.
measure.name: pKd

Exercise: So what's the measured pKd for this one? DFPIFNQRY
Solution: ≤ 4.70

* * *

assayed.target: HLA-A*02:16
assay.info: IEDB peptide-MHC binding, purified MHC/direct/fluorescence; filed as Kd, often an IC50 or EC50 that approximates it; bounds were set here for any values at or beyond the usual limits of such assays
experimental.parameters: source organism: Giardia lamblia ATCC 50803
Measured Kd by item

| query.sequence | assayed.target | Kd |
| --- | --- | --- |
| APDGFYPFK | HLA-A*02:16 | ≥ 20 µM |

Exercise: Field request: Kd | item: MHYGYNRAN
Solution: ≥ 20 µM

* * *

assayed.target: HLA-B*48:01
assay.info: IEDB peptide-MHC binding, purified MHC/direct/fluorescence; filed as Kd, often an IC50 or EC50 that approximates it; bounds were set here for any values at or beyond the usual limits of such assays
experimental.parameters: source organism: Camelpox virus M-96
pKd: −log10 of the molar value.
measure.name: pKd

Some entries whose results are on file:
| query.sequence | pKd |
| --- | --- |
| YPAVINSNI | ≤ 4.70 |
| EIKDRILSY | ≤ 4.70 |

# evaluate next
Exercise: May I ask what pKd has been recorded for DILASIIDY ?
Solution: ≤ 4.70

* * *

assayed.target: HLA-A*23:01
assay.info: IEDB peptide-MHC binding, purified MHC/competitive/radioactivity; filed as Kd, often an IC50 or EC50 that approximates it; bounds were set here for any values at or beyond the usual limits of such assays
experimental.parameters: source organism: Dengue virus 3 Martinique/1243/1999
measure.name: pKd
// returns pKd (minus log10 of molar concentration), number only

Exercise: Return reported pKd; argument: QWFFDLPLPW
Solution: 7.83

* * *

assayed.target: HLA-A*02:12
assay.info: IEDB peptide-MHC binding, purified MHC/direct/fluorescence; filed as Kd, often an IC50 or EC50 that approximates it; bounds were set here for any values at or beyond the usual limits of such assays
experimental.parameters: source organism: Salmonella enterica subsp. enterica serovar Typhimurium str. LT2
pKd: −log10 of the molar value.
measure.name: pKd

Exercise: // returns reported pKd for input FPASHMATY
Solution: ≤ 4.70

* * *

assayed.target: HLA-A*02:06
assay.info: IEDB peptide-MHC binding, purified MHC/competitive/radioactivity; filed as Kd, often an IC50 or EC50 that approximates it; bounds were set here for any values at or beyond the usual limits of such assays
experimental.parameters: source organism: Dengue virus 2 Jamaica/1409/1983
The reader will find reported pKd values listed item by item below.
Friendly reminder that pKd comes from taking -log10 of the concentration in mol/L.

Consider the worked cases shown below.
| query.sequence | assayed.target | pKd |
| --- | --- | --- |
| LLVISGVFPV | HLA-A*02:06 | 9.14 |
| KQLGQVMLL | HLA-A*02:06 | 8.29 |
| VQADSGCVV | HLA-A*02:06 | 7.10 |

Turning now to a further sequence:
Exercise: Could you share what pKd was measured for NQLTYVVIAI , tested on HLA-A*02:06?
Solution: 7.63

* * *

assayed.target: HLA-B*27:05
assay.info: IEDB peptide-MHC binding, purified MHC/direct/fluorescence; filed as Kd, often an IC50 or EC50 that approximates it; bounds were set here for any values at or beyond the usual limits of such assays
experimental.parameters: source organism: Camelpox virus M-96
pKd: −log10 of the molar value.
measure.name: pKd

| query.sequence | measure.name | measured.value |
| --- | --- | --- |
| EIKDRILSY | pKd | ≤ 4.70 |
| YPAVINSNI | pKd | ≤ 4.70 |

Next up:
Exercise: Find the recorded pKd belonging to DILASIIDY and report it.
Solution: ≤ 4.70

* * *

assayed.target: HLA-A*02:17
assay.info: IEDB peptide-MHC binding, purified MHC/competitive/radioactivity; filed as Kd, often an IC50 or EC50 that approximates it; bounds were set here for any values at or beyond the usual limits of such assays
experimental.parameters: source organism: Dengue virus 3 China/80-2/1980
measure.name: pKd
Scale: pKd equals -log10([C]), with [C] in mol/L.

Observe how each entry below is paired with its result.
| query.sequence | assayed.target | measure.name | measured.value |
| --- | --- | --- | --- |
| IVLEFFMMV | HLA-A*02:17 | pKd | 6.88 |
| FTMGVLCLAI | HLA-A*02:17 | pKd | 6.88 |

# context switch: different sequence, same pKd
Exercise: Value lookup for pKd; key = LLTGGAMLFL
Solution: 6.46

* * *

assayed.target: HLA-A*24:02
assay.info: IEDB peptide-MHC binding, purified MHC/direct/fluorescence; filed as Kd, often an IC50 or EC50 that approximates it; bounds were set here for any values at or beyond the usual limits of such assays
experimental.parameters: source organism: Influenza A virus (A/Viet Nam/HN/2004(H5N1))
measure.name: Kd

Exercise: // lookup Kd for VSPLAVTWW
Solution: ≥ 20 µM

* * *

assayed.target: HLA-A*02:01
assay.info: IEDB peptide-MHC binding, purified MHC/competitive/fluorescence; bounds were set here for any values at or beyond the usual limits of such assays
experimental.parameters: source organism: Hepatitis C virus subtype 1b
measure.name: pIC50
Note: pIC50 values are expressed as the negative base-10 logarithm of concentration in M.

Exercise: I am curious: what pIC50 value has been reported for QLSGLGINAV ?
Solution: 6.91

* * *

assayed.target: HLA-A*01:01
assay.info: IEDB peptide-MHC binding, purified MHC/competitive/radioactivity; filed as Kd, often an IC50 or EC50 that approximates it; bounds were set here for any values at or beyond the usual limits of such assays
experimental.parameters: source organism: Dengue virus 4 Philippines/H241/1956
measure.name: Kd (µM)
The figure you give is taken to be in µM; do not add the unit.

Exercise: For LLSSTRVPNY , what is its reported Kd?
Solution: 2.26
